Source listed as patent US12030896B2.

Experiment: Pharmacokinetic study of Example 1 in mouse (IV, IP, PO)
Type: in vivo, Male C57BL/6 Mouse
Conditions: male, C57BL/6, mouse, plasma, po, 30 mg/kg, PO 30 mg/kg; mean; read-out: Cmax
Protocol: Species: Male C57BL/6 Mouse, fasted. PK/PD testing of the compound was performed in mice, after IP, IV, or oral administration.
PROPERTY_MEASURED: Cmax
Output should be the measured figure followed by the unit it is expressed in.

Prompt line: // query Cmax value for entry Cc1ccc(Nc2nc(N/N=C/c3c[nH]c4ccccc34)nc(N3CCOCC3)n2)cc1 [Example 1]
Response line: 122 ng/mL

====

Assay: Pharmacokinetic study of Example 1 in mouse (IV, IP, PO)
Type: in vivo, Male C57BL/6 Mouse
Conditions: male, C57BL/6, mouse, plasma; IP 30 mg/kg; calculated using AUC0-inf or AUC0-last with nominal dose
PROPERTY_MEASURED: bioavailability (%)
Numbers only; they are read as %.

Prompt line: // query bioavailability value for entry Cc1ccc(Nc2nc(N/N=C/c3c[nH]c4ccccc34)nc(N3CCOCC3)n2)cc1
Response line: 35.7

====

Assay: Pharmacokinetic study of Example 1 in mouse (IV, IP, PO)
Type: in vivo, Male C57BL/6 Mouse
Conditions: male, C57BL/6, mouse, plasma, ip, 30 mg/kg, IP, single 30 mg/kg dose; read-out: half life (converted)
PROPERTY_MEASURED: half-life (h)
Numbers only; they are read as h.

Prompt line: // query half-life value for entry Cc1ccc(Nc2nc(N/N=C/c3c[nH]c4ccccc34)nc(N3CCOCC3)n2)cc1
Response line: 10.1

====

Experiment: Pharmacokinetic study of Example 1 in mouse (IV, IP, PO)
Assay type: in vivo, Male C57BL/6 Mouse
Settings: male, C57BL/6, mouse, plasma, po, 30 mg/kg, PO 30 mg/kg; individual mice M7-M9; read-out: MRT0-inf
PROPERTY_MEASURED: MRT inf
Output should be the measured figure followed by the unit it is expressed in.

Prompt line: // query MRT inf value for entry Cc1ccc(Nc2nc(N/N=C/c3c[nH]c4ccccc34)nc(N3CCOCC3)n2)cc1
Response line: 2.1 h

====

Test: Pharmacokinetic study of Example 3 in mouse (IV, IP)
Assay type: in vivo, C57 Mouse
Conditions: C57, mouse, plasma, intraperitoneal, 30 mg/kg, 30 mg/kg IP; 8.00 h; individual animals 201M-203M; read-out: Plasma concentrations
PROPERTY_MEASURED: concentration at 8 h
Output should be the measured figure followed by the unit it is expressed in.

Prompt line: // query concentration at 8 h value for entry Cc1ccc(Nc2nc(N/N=C/c3c[nH]c4ccccc34)cc(N3CCOCC3)n2)cc1 [Example 3]
Response line: 998 ng/mL

====

Assay: Pharmacokinetic study of Example 1 in mouse (IV, IP, PO)
Type: in vivo, Male C57BL/6 Mouse
Conditions: male, C57BL/6, mouse, plasma, ip, 30 mg/kg, IP 30 mg/kg; mean; read-out: T1/2 (converted)
PROPERTY_MEASURED: half-life (h)
Numbers only; they are read as h.

Prompt line: // query half-life value for entry Cc1ccc(Nc2nc(N/N=C/c3c[nH]c4ccccc34)nc(N3CCOCC3)n2)cc1
Response line: 10.1

====

Assay: Pharmacokinetic study of Example 1 in mouse (IV, IP, PO)
Assay type: in vivo, Male C57BL/6 Mouse
Conditions: male, C57BL/6, mouse, plasma, ip, 30 mg/kg, IP 30 mg/kg; 24.0 h; mean
PROPERTY_MEASURED: concentration at 24 h (ng/mL)
Numbers only; they are read as ng/mL.

Prompt line: // query concentration at 24 h value for entry Cc1ccc(Nc2nc(N/N=C/c3c[nH]c4ccccc34)nc(N3CCOCC3)n2)cc1
Response line: 36.6
